So I've got a bunch of molecules here, and I need their normalized growth values.
- Test: chemical genetic growth profiling, strain panel (AID 1159580);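 also: tested at 20 µM; growth read once vehicle control cultures reached saturation at 30 °C; 1 = growth at the plate median or of vehicle wells; lower values mean less growth of the strain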
- Protocol Conditions: S. cerevisiae deletion strains, growth OD, locus YLR027C, strain aat2, stronger effect = lower value
In all, about 5,500 compounds went through this assay and about 2,000 (36%) were called active. Roughly 18% stayed inconclusive and do not appear here. This is one part of the list.
Answers are plain numbers.

>  <Molecule>
COC(=O)/C(C)=C\CC12OC(C)(C)C3CC(C=C4C(=O)c5c(OC)c6c(c(CC=C(C)C)c5OC431)OC(C)(CCC=C(C)C)C=C6)C2=O (stereo not given)

>  <normalized growth>
1.01

$$$$

Dear colleague, could you please provide normalized growth for the molecules listed below?
1. Cc1ccc(C(=O)c2ccc(CC(=O)O)n2C)cc1
2. CC(=O)Oc1c2c(c(CC=C(C)C)c3c1C(=O)C1=C[C@@H]4CC5C(C)(C)OC(C/C=C(\C)C(=O)O)(C4=O)[C@@]15O3)OC(C)(CCC=C(C)C)C=C2 (stereo not given in full)
3. Cc1cc(CC(=O)O)n(C)c1C(=O)c1ccc(Cl)cc1
4. C1N2CN3CN1CN(C2)C3

1: 1.02; 2: 0.977; 3: 1.03; 4: 0.996
